# T/C values compiled below
# Tested on: P388 leukemia ip, CD2F1 mice, survival T/C
# protocol notes: NCI In Vivo Anticancer Drug Screen. Data for tumor model P388 Leukemia (intraperitoneal) in CD2F1 (CDF1) mice
# condition context: endpoint: median survival time; dose: 25.0 mg/kg/injection; schedule: Q01DX005 (ip); vehicle: saline; higher = longer survival
Toxic doses and inconclusive results are not listed.

Example entries and their recorded answers appear below.
>>> df
                                   compound  property_label          observed
0  CCN1CC2(COC)C(O)CC(OC)C34C5CC6(O)C(O)C5C(O)(C(O)C6OC)C(C(OC)C23)C14 (stereo unspecified)             T/C  114 % of control
1  CCCCN(CCCC)P1(=O)OP(=O)(N(CCCC)CCCC)OP(=O)(N(CCCC)CCCC)O1 (stereo unspecified)             T/C  101 % of control
2               CCC(=O)c1cc2ccccc2c2ccccc12             T/C  100 % of control
3  CCCC(C)N(CCCNc1cc(OC)cc2cccnc12)CC(C)C (stereo unspecified)             T/C  107 % of control
4  CC(NC(=O)CNC(=O)CN)C(=O)O (stereo unspecified)             T/C  102 % of control

The record that follows has no T/C shown yet.
Ask: Any idea what its T/C is? The compound is CCCCN(CC(O)CNc1cc(OC)cc2cccnc12)C(C)CC (stereo unspecified)
Reply: 92 % of control

----------
# Test system: P388 leukemia ip, CD2F1 mice, survival T/C
# protocol notes: NCI In Vivo Anticancer Drug Screen. Data for tumor model P388 Leukemia (intraperitoneal) in CD2F1 (CDF1) mice
# condition context: endpoint: median survival time; dose: 200.0 mg/kg/injection; schedule: Q01DX005 (ip); vehicle: saline with Tween-80; higher = longer survival
Toxic doses and inconclusive results are not listed.
# T/C values compiled below

>>> print(df.to_string())
                                   compound          observed
0  CC1(C)CN(Cc2ccccc2)CCOC1N1CCOCC1 (configuration not stated)  115 % of control
1  O=C1OC(c2ccccc2)(c2ccc(Cl)cc2)CC1/C=C(\c1ccccc1)c1ccc(Cl)cc1 (configuration not stated)   91 % of control
2       CCOC(=O)c1c[nH]c2c(OC)ccc(OC)c2c1=O  100 % of control
3  CC(=O)NC1CCCCC1C1CCC(N)CC1 (configuration not stated)   87 % of control

Ask: Any idea what its T/C is? The compound is CC(C)(C)SC(=S)SCC(=O)c1cc2cc(Br)ccc2o1
Reply: 93 % of control

Ask: Also, N#Cc1ccc[n+](Cc2ccccc2)c1 please.
Reply: 100 % of control

Ask: Also, Clc1c(Br)c(-c2ccccc2)nc2ccccc12 please.
Reply: 108 % of control

----------
# Tested on: P388 leukemia ip, CD2F1 mice, survival T/C
# protocol notes: NCI In Vivo Anticancer Drug Screen. Data for tumor model P388 Leukemia (intraperitoneal) in CD2F1 (CDF1) mice
# condition context: endpoint: median survival time; dose: 200.0 mg/kg/injection; schedule: Q01DX005 (ip); vehicle: saline; higher = longer survival
Inconclusive results and toxic doses are left out.
# T/C values compiled below

Example entries and their recorded answers appear below.
>>> df
                                   compound  property_label          observed
0  COC(CNC(=O)COc1ccccc1OCC(=O)NCC(OC)OC)OC             T/C  102 % of control
1  CC(=O)NC1C(NNC(=O)c2ccncc2)OC(CO)C(O)C1O (configuration not stated)             T/C  104 % of control
2  O=C1OCC23CCC4C1C42CC1(CC3)OCCO1 (configuration not stated)             T/C   98 % of control
3  [Cl][Sn]1([Cl])[CH2]CC[CH2][Sn]([Cl])([Cl])[CH2]CC[CH2][Sn]([Cl])([Cl])[CH2]CC[CH2][Sn]([Cl])([Cl])[CH2]CC[CH2]1             T/C  102 % of control
4                        C=CC(=O)OCC(C)(C)C             T/C  116 % of control

Ask: Any idea what T/C came out for O=C1CN(CCCN2CCOCC2)CC(=O)N2Cc3ccccc3CN12 on P388 leukemia ip, CD2F1 mice, survival T/C?
Reply: 108 % of control

Ask: Also, CC1(C)CC(=O)C=C(NCCO)C1 please.
Reply: 96 % of control
